Every entry's value here was drawn from patent US3947589A.

Assay: acute oral toxicity test
Conditions: in vivo
property label: LD50

>>> df
                                   compound       result
0  CCCCCCCCCCCC(=O)N[C@H](C(=O)O)C(C)C [No. 2, N-lauroyl-L-valine]  ~6000 mg/kg

====

Measured Number of leaves infected (outside), listed per entry.
Tested on: cucumber downy mildew (Pseudoperonospore cubensis)
Assay: inhibitory test against cucumber downy mildew
Type: in vivo
Conditions: Table 6; 500 ppm, four sprays; 23rd of May; untreated 12
property label: Number of leaves infected (outside)

In [3]: df
Out[3]:
                                   compound                       property_label  number
0   CCCCCCCCCCCCCC(=O)NCC(=O)O [compound 9]  Number of leaves infected (outside)       7
1  CCCCCCCCCCCC(=O)NC(Cc1ccccc1)C(=O)O (centres unmarked) [compound 8]  Number of leaves infected (outside)       3
2  CCCCCCCCCCCCCCCCCC(=O)N[C@@H](Cc1ccccc1)C(=O)O [compound 4]  Number of leaves infected (outside)       7
3  CCCCCCCCCC(=O)N[C@@H](Cc1ccccc1)C(=O)O [compound 12]  Number of leaves infected (outside)       4
4  CCCCCCCCCCCC(=O)NC(Cc1ccc([N+](=O)[O-])cc1)C(=O)O (centres unmarked) [compound 3]  Number of leaves infected (outside)       6
5  CCCCCCCCCCCCCCCCCC(=O)NC(C)C(=O)O (centres unmarked) [compound 7]  Number of leaves infected (outside)       5
6     CCCCCCCCCCCC(=O)NCC(=O)O [compound 1]  Number of leaves infected (outside)       4
7  CCCCCCCCCCCC(=O)N[C@@H](CC(C)C)C(=O)O [compound 13]  Number of leaves infected (outside)       7
